Target: T1, neuropilin-1 (NRP1) on HEK293 cells overexpressing NRP1 (UniProt O14786 22-923, limits assumed)
T1 construct: whole, on cells
Experiment: flow cytometry, HEK293-NRP1 vs HEK293
Reported values of 100 nM FACS (MFI Ratio) for individual entries
MEASURED_ATTRIBUTE: 100 nM FACS (MFI Ratio)

{"BINDER": "NRP1-60 (VHH) VHH: EVQLVESGGGLVQPGGSLRLSCAASGNIFINNAMGWFRQAPGKERELVAAISGRSGNTYYADSVKGRFTISADNSKNTAYLQMNSLKPEDTAVYYCAARRIVNVEGAYRDWGQGTLVTVSS", "MEASURED_RESULT": 1}
{"BINDER": "NRP1-228 (antibody, IgG2, V domains shown) VH: EVQLLESGGGLVQPGGSLRLSCAASGFSFSTHAMTWVRQAPGKGLEWVSTISGLGTGTYYADSVKGRFTISRDNSKNTLYLQMNSLRAEDTAVYYCARSTRGGFDYWGQGTLVTVSS VL: DIQMTQSPSSLSASVGDRVTITCRAGQSIRSYLNWYQQKPGKAPKLLIYAASTLQRGVPSRFSGSGSGTDFTLTISSLQPEDFATYYCQQTYTTPLTFGGGTKVEIK", "MEASURED_RESULT": 3}
{"BINDER": "NRP1-28 (VHH) VHH: EVQLVESGGGLVQPGGSLRLSCAASGFTRSYYTMGWFRQAPGKEREFVAAMNWSGSSTVYADSVKGRFTISADNSKNTAYLQMNSLKPEDTAVYYCAKDTGSPKNYYYYYGMDVWGQGTLVTVSS", "MEASURED_RESULT": 33}
{"BINDER": "NRP1-29 (VHH) VHH: EVQLVESGGGLVQPGGSLRLSCAASGFTLDNYAMGWFRQAPGKEREFVARITSGGDTTYYADSVKGRFTISADNSKNTAYLQMNSLKPEDTAVYYCARAYGRGTYDWGQGTLVTVSS", "MEASURED_RESULT": 26}

Where do these numbers come from? They come from patent US20230265198A1.
